Known growth of a selection of compounds
Test system: NCI-H23 lung
Experiment: NCI-60 one-dose screen, 48 h (100 = growth as untreated, 0 = no growth, -100 = all killed)
Settings: 10 µM unless noted
Compounds without any hit were thinned out: in the full panel of roughly 83,000, 20% have a hit.
Quick note: give the figure in %, leave out the unit.

Request the reported growth associated with "CC(=O)NCCN" 111

Now the compound "COc1cc(OC)c(NC(=O)n2ncc3cc(Nc4ncnc5ccccc45)ccc32)cc1Cl" 97.5

Now the compound "CC(=O)N1CCN(CCNC(=O)n2cc(-c3ccncc3)c(-c3cc(O)cc(Cl)c3)n2)CC1" 99.7

Now the compound "C[C@@H](c1ccc2c(c1)[nH]c1ccc(Cl)cc12)c1nc2ccccc2[nH]1" 91.2

Now the compound "Cc1ccc(C(=O)Nc2ccc(CN3CCN(C)CC3)c(C(F)(F)F)c2)cc1C#Cc1cnc(N)c2ccc(F)cc12" -77.3

Now the compound "CC(=O)Nc1ccc(S(=O)(=O)Cl)cc1" 112

---

Tested on: HOP-92 NSCLC
Experiment: NCI-60 one-dose screen, 48 h
Settings: 10 µM
Compounds without any hit were thinned out: in the full panel of roughly 83,000, 20% have a hit. Active and inactive are the calls of the source. Rule for the calls: active = growth percent below 10; inactive = the rest.
# output must be one of 1 = active, -1 = inactive

1. COc1cc(NC(=O)CSc2nc3ccc(Cl)cc3c(=O)n2-c2ccc(F)cc2)cc(OC)c1OC: -1
2. COc1ccc(/C=C2\SC(=O)N(Cc3cc(=O)oc4ccc(OC)cc34)C2=O)cc1: -1
3. COc1cc(NC(C)CCCN)c2nccc(C)c2c1OC (stereo not given): -1

Given "O=C(Nc1ccc(Cl)c(Cl)c1)O/N=C\c1c(Cl)ccc([N+](=O)[O-])c1Cl" , state the outcome it received in this test. 1

Now the compound "O=C(NCCNCCO)c1cc([N+](=O)[O-])cc([N+](=O)[O-])c1O" -1

---

Known growth of a selection of compounds
Test system: KM12 colon
Experiment: NCI-60 one-dose screen, 48 h (100 = growth as untreated, 0 = no growth, -100 = all killed)
Conditions: 10 µM unless noted
This is part of a sample that, as a whole, favours compounds with a hit. Of some 83,000 tested, about 20% had one in any assay. Activity calls are given as the source filed them. The calls were made as follows: active = growth percent below 10; inactive = the rest.

1) O=C1/C(=N\c2cc(=O)[nH]n2S(=O)(=O)c2ccccc2)Nc2ccccc21: 99.4% (inactive)
2) O=C(Nc1ccc(-n2cc(-c3ccncc3)c(-c3ccc(Cl)c(O)c3)n2)cc1)c1cc(C(F)(F)F)cc(C(F)(F)F)c1: 28% (inactive)
3) O=c1c(N=Nc2nccs2)c(-c2ccccc2)[nH]n1-c1nc(-c2ccccc2)cs1: 28.5% (inactive)
4) Cc1ccnc2c(NC(C)CCCN)cc(O)c(O)c12 (centres undefined): 109% (inactive)
5) CCOC(=O)c1csc(-c2ccc(COC(=O)c3ccccc3)o2)n1: 112% (inactive)

Request the reported growth associated with "O=c1oc2ccc3ccccc3c2cc1-c1ccnc2[nH]c(=S)[nH]c(=O)c12" 101% (inactive)

Now the compound "NCCCOc1cc2ccccc2cc1C(=O)Nc1ccc(Cl)cc1OC(=O)c1cc2ccccc2cc1OCCCN" -96.5% (active)

Now the compound CC([C@H]1CC=C2C3CCC4=C[C@@H](N(C)C)CC[C@]4(C)C3CC[C@@]21C)N(C)C (some centres undefined) 30.6% (inactive)

Now the compound CCS(=O)(=O)N[C@@H]1O[C@H](COC(C)=O)C(OC(C)=O)[C@H](OC(C)=O)C1OC(C)=O (some centres undefined) 106% (inactive)

---

Tested on: SK-MEL-28 melanoma
Assay: NCI-60 one-dose screen, 48 h
Conditions: 10 µM unless noted
About 83,000 compounds went through this panel and 20% of them were active in at least one assay; those are over-represented in the sample as a whole. The source made the active and inactive calls. The calls were made as follows: active = growth percent below 10; inactive = the rest.
# output must be one of Yes (active), No (inactive)

Solved entries (count: 2):
1) NNC(=S)N1N=C(c2cc3ccccc3o2)CC1c1c[nH]c2ccccc12 (configuration not stated): No
2) CC(C)CCCCCOC(=O)c1ccccc1SSc1ccccc1C(=O)OCCCCCC(C)C: No

Given "C/C(=N\Nc1cccc(Cl)n1)c1ccccn1" , state the outcome it received in this test. No

Now the molecule "COc1ccc2cn3c4ccc(O)cc4[nH]c(=O)c3c2c1" No

Now the molecule "CC1(C)N=C(N)N=C(N)N1c1cccc(CCCCOc2ccccc2)c1" No

Now the molecule "COc1ccc(/C=C(/C(=O)N2CCN(c3ccc(C)cc3)CC2)c2cc(OC)c(OC)c(OC)c2)cc1N" No

Now the molecule "N/C(=N\O)c1ccncc1" No

---

Tested on: NCI-H522 lung
Assay: NCI-60 one-dose screen, 48 h
Details: 10 µM
Compounds without any hit were thinned out: in the full panel of roughly 83,000, 20% have a hit. Calls of active or inactive are those of the source. Rule for the calls: active = growth percent below 10; inactive = the rest.
# output must be one of active, inactive

1) CC1=NN(c2cccc(Cl)c2)C(=O)/C1=C\c1cn(-c2nc(N3CCOCC3)nc(N3CCOCC3)n2)c2ccccc12: inactive
2) NNC(=S)N1N=C(c2cc3ccccc3o2)CC1c1c[nH]c2ccccc12 (configuration not stated): inactive
3) c1cc(C2CCCCC2)ccc1OCCCCCCN1CCNCC1: inactive
4) C/C=C(/C)C(=O)OC1C=C(CO)C(=O)C(OC(=O)C2(C)OC2C)C1C(C)C (configuration not stated): active
5) C=CCSc1nnc(COc2ccc3c(C)c(Cc4ccccc4)c(=O)oc3c2C)o1: inactive

Given "O=C(O)c1ccc(Br)nc1" , state the outcome it received in this test. inactive

Now the compound "CCOC(=O)CCCCCCCCC(=O)OCC" inactive

Now the compound "Cc1ccc(NCc2cn(-c3ccc(C(=O)O)cc3)nc2-c2ccc(C(=O)O)cc2)cc1" inactive

Now the compound "CCCCCc1ccnc(CC(=O)c2ccc(OC)cc2)c1" inactive

Now the compound CCN(CC)CCCC(C)Nc1c(C)cnc2cc(Cl)c(C)cc12 (configuration not stated) inactive

Now the compound C/C=C(/C)C(=O)OC1C=C(CO)C(=O)C(OC(=O)/C(C)=C\C)C1C(C)C (configuration not stated) active

Now the compound COc1ccc2cc(C(C)C(=O)Nc3ccc(S(=O)(=O)Nc4cc(C)on4)cc3)ccc2c1 (configuration not stated) inactive

Now the compound "O=c1oc2ccc3ccccc3c2cc1-c1ccnc2[nH]c(=S)[nH]c(=O)c12" inactive

Now the compound O=C(O)CC1Cc2ccccc2C1C(=O)O (configuration not stated) inactive

Now the compound "Cc1ccc(OCCn2ccc(=O)n(CCOc3ccc(Cl)cc3C(=O)c3cc(C)cc(C)c3)c2=O)cc1" inactive

Now the compound "Cc1ccc(C(=O)NN)cc1" inactive

Now the compound "COc1ccccc1CNCCCN1C(=O)c2ccc3c4c(ccc(c24)C1=O)C(=O)N(CCCNCc1ccccc1OC)C3=O" active

Now the compound "COc1ccc2cnc(N)c(C#Cc3cc(C(=O)Nc4ccc(CN5CCN(C)CC5)c(C(F)(F)F)c4)cnc3C)c2c1" inactive

Now the compound "C=CCNC(=S)NNc1ccc([N+](=O)[O-])cn1" inactive

Now the compound "CC(=O)Nc1ccc(C(=O)/C=C/c2ccc(N(C)C)cc2)cc1" inactive

Now the compound "O=C(Nn1cnc2ccccc21)N1CCCC1" inactive

Now the compound "Oc1ccccc1\C=N/N=C/C=C/c1ccccc1" inactive

---

Test system: T-47D breast
Assay: NCI-60 one-dose screen, 48 h (100 = growth as untreated, 0 = no growth, -100 = all killed)
Conditions: 10 µM unless noted
The panel holds about 83,000 compounds, 20% with a hit somewhere; the sample as a whole holds those more often. Active and inactive are the calls of the source. How the source made its calls: active means growth percent below 10; inactive means the rest.
Measured Attribute: growth

Below, each entry is followed by its recorded growth result.
1. NCCCOc1cc(Cl)ccc1NC(=O)c1cc2ccccc2cc1OCCCN: -70.5% (active)
2. COc1cc(OC)cc(-c2ccc(-c3ccc(C(=N)N)cc3)s2)c1: -53.6% (active)
3. CC(=N\N=C(N)N)/C(=N/N=C(N)N)c1ccccc1: 60.8% (inactive)
4. CCOC1=C(Cl)C(=O)C(OCC)=C(Cl)C1=O: 93.5% (inactive)
5. O=C(/C=C/c1ccc(Br)cc1)c1ccccc1: 74.8% (inactive)
6. CN1NC(c2ccccc2)NN(C)C1=O: 95.7% (inactive)

Request the reported growth associated with "CCCCCCCCC(=O)Nc1ccc(O)cc1" 88.7% (inactive)

Now the compound "COc1ccc(Cn2cc3c(c2)-c2oncc2CC3)cc1OC" 47.5% (inactive)

Now the compound "CC(=O)OCC(=O)[C@@]1(O)[C@H](C)C[C@H]2[C@@H]3C=C(C)C4=Cc5c(cnn5-c5ccc(F)cc5)C[C@]4(C)[C@H]3[C@@H](O)C[C@@]21C" 42.9% (inactive)

Now the compound NC(=O)CC(NC(=O)COc1ccc(Cl)cc1Cl)C(=O)O (centres undefined) 109% (inactive)

Now the compound "COc1cc2c(cc1OC)C(Cc1cc(OC)c(OC)cc1[N+](=O)[O-])=NCC2" 78.5% (inactive)

Now the compound "O=C(CCl)NC1c2ccccc2Oc2ccccc21" 65.9% (inactive)

Now the compound "N/C(=N\O)c1ccncc1" 102% (inactive)

Now the compound CC(O)C(N)=O (centres undefined) 94.7% (inactive)

Now the compound "Cc1ccc(CC(=O)O)c(C)c1" 97.1% (inactive)

Now the compound "COc1ccc(Nc2c3ccccc3nc3ccccc23)cc1" 30.6% (inactive)

Now the compound "O=C(/C=C/c1ccc(Cl)cc1)c1ccc(Cl)cc1" 114% (inactive)

Now the compound Cc1ccnc2c(NC(C)CCCN)cc(O)c(O)c12 (centres undefined) 106% (inactive)

Now the compound "Cc1sc(NC(=O)c2ccc(C(C)(C)C)cc2)c(C(=O)O)c1C" 87.5% (inactive)

Source listed as PubChem BioAssay (NCI).
